Cited source for all entries: patent US20110086806A1

# Study Target: T1, recombinant human IL-23R/Fc chimera (R&D Systems) (human, UniProt Q5VWK5 24-355)
# T1 construct: Bought; also called rhIL23RFc
# T1 sequence (looked up): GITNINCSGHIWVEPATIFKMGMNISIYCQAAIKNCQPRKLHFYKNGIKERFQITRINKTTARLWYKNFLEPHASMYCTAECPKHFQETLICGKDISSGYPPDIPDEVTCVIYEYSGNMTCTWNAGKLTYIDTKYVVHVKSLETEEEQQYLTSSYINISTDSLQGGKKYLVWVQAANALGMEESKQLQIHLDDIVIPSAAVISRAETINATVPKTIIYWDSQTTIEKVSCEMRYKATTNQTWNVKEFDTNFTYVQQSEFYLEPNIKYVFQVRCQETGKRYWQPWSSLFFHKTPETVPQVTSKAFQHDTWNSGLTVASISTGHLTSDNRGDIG
# Measurement Notes: SPR
Value Kind: koff (s⁻¹)

{"Binder": "056-45.F7F ATRIMER complex (designed binder, Homotrimer of this chain (ATRIMER complex)., not shown: A possible extra N-terminal Ser from the ompA junction is left out) EPPTQKPKKIVNAKKDVVNTKMFEELKSRLDTLAQEVALLKEQQALQTVCLKGTKVHMKCFLAFTQTKTFHEASEDCISRGGTLSTPQTGSENDALYEYLRQSVGNEAEIWLGLNGSATTDTWVDMTGARIAYKNWETEITAQPDGGFGYFGENCAVLSGAANGKWFDKRCRDQLPYICQFGIV", "Scale Unit": "s⁻¹", "Numeric Result": 0.000376}
{"Binder": "056-41.B12F ATRIMER complex (designed binder, Homotrimer of this chain (ATRIMER complex)., not shown: A possible extra N-terminal Ser from the ompA junction is left out) EPPTQKPKKIVNAKKDVVNTKMFEELKSRLDTLAQEVALLKEQQALQTVCLKGTKVHMKCFLAFTQTKTFHEASEDCISRGGTLSTPQTGSENDALYEYLRQSVGNEAEIWLGLNGSVRSATWVDMTGARIAYKNWETEITAQPDGGYGVFGENCAVLSGAANGKWFDKRCRDQLPYICQFGIV", "Scale Unit": "s⁻¹", "Numeric Result": 0.000545}
{"Binder": "056-53.H7B ATRIMER complex (designed binder, non-covalent homotrimer of the one chain given, not shown: Also the single Ser the vector leaves after the ompA signal) EPPTQKPKKIVNAKKDVVNTKMFEELKSRLDTLAQEVALLKEQQALQTVCLKGTKVHMKCFLAFTQTKTFHEASEDCISRGGTLSTPQTGSENDALYEYLRQSVGNEAEIWLGLNAGRMGLVWVDMTGARIAYKNWETEITAQPDGGWGVFGENCAVLSGAANGKWFDKRCRDQLPYICQFGIV", "Scale Unit": "s⁻¹", "Numeric Result": 0.00024}
